Target: UniProtKB P45452
Experiment: potency against MMP13, MMP2, MMP3, MMP14 – biochemical, probe development, late stage results, selectivity assay for MMP13 inhibitor project, late-stage follow-up (AID 2067)
Conditions: recombinant MMP panel, fTHP FRET substrate cleavage; MMP-13
Parameter IC50: see the listing below.

Reference set, count: 2
structure_notation=Cc1ccc(CSc2nc3c(c(=O)[nH]2)CCC3)cc1 tested_on="UniProtKB P45452" result="2.44 µM"
structure_notation=O=c1[nH]c(SCc2ccc(Cl)cc2)nc2c1CCC2 tested_on="UniProtKB P45452" result="3.36 µM"

Attention now shifts to the item below.
input: Provide only the value of recorded IC50 for "COC(=O)c1ccc(CSc2nc3c(c(=O)[nH]2)CCC3)cc1"
output: 2.82 µM

These data points were gathered from PubChem BioAssay AID2067.
